- target or test system: UniProt:P25779
- Sequence (P25779 123-467 limits assumed): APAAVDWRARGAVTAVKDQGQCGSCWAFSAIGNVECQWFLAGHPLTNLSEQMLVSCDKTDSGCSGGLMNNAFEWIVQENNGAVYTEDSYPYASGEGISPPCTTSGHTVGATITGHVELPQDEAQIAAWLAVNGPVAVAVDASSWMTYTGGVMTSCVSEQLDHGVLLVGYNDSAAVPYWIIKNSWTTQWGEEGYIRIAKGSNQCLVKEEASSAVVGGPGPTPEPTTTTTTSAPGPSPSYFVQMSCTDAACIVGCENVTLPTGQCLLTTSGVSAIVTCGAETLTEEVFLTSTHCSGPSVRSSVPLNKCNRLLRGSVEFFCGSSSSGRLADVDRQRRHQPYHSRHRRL
- procedure summary: Inhibition of recombinant Trypanosoma cruzi cruzain at 100 uM using Z-FR-AMC as substrate by fluorometry relative to control
property: inhibition (%)

line notation | unit tag | inhibition
Clc1ccc(Nc2nc(NCCN3CCOCC3)c3ccccc3n2)cc1 | % | 95
OCCCNc1nc(Nc2ccc(Cl)cc2)nc2ccccc12 | % | 87
O=C(c1ccc(Nc2nc(NCCN3CCOCC3)c3ccccc3n2)cc1)N1CCOCC1 | % | 85
Oc1cccc(Nc2nc(NCc3ccccc3)c3ccccc3n2)c1 | % | 100
O=C(c1ccc(Nc2nc(NCCCO)c3ccccc3n2)cc1)N1CCOCC1 | % | 90

I = OCCCNc1nc(Nc2cccc(F)c2)c2ccccc2n1
II = Fc1cccc(Nc2nc(Nc3ccccc3)nc3ccccc23)c1
Of I and II , which one carries the higher reported inhibition? Mark your answer with the label of the selected entry.
I

The values you see were collected from ChEMBL document CHEMBL4831522.
